Ref: patent US8916599B2

- Measured target: recombinant human mPGES-1 (Homo sapiens)
- Construct: made in house; host or cells: Rosetta E. coli (microsomal/membrane fraction)
- Assay summary: mPGES-1 inhibition test (microsomes, PGH2 substrate, HTRF detection of PGE2)
- Assay type: biochemical
- Condition parameters: inhibition of mPGES-1 at 10 μM
This listing pairs molecules with measured inhibition at 10 µM.

Smiles notation	Unit label	inhibition at 10 µM
O=C(Nc1ccccc1)c1ccc2[nH]c(Nc3ccccc3Cl)nc2c1	%	93
Cn1c(Nc2c(Cl)cccc2Cl)nc2cc(C(=O)Nc3ccccc3)ccc21	%	97
Cn1c(Nc2c(F)cccc2Cl)nc2cc(C(=O)NCC3CC3)c(F)cc21	%	85
O=C(Nc1ccc(I)cc1)c1ccc2[nH]c(Nc3c(Cl)cccc3Cl)nc2c1	%	100
Cc1cc(NC(=O)c2ccc3nc(Nc4c(Cl)cccc4Cl)[nH]c3c2)ccn1	%	99
Cn1c(Nc2c(Cl)cccc2Cl)nc2cc(C(=O)Nc3ccc(C#N)cn3)ccc21	%	91

* * *

Quick reference for inhibition at 10 µM among some compounds
- Measured target: recombinant human mPGES-1 (Homo sapiens)
- Construct: made in house; host or cells: Rosetta E. coli (microsomal/membrane fraction)
- Assay summary: mPGES-1 inhibition test (microsomes, PGH2 substrate, HTRF detection of PGE2)
- Format: biochemical
- Condition parameters: inhibition of mPGES-1 at 10 μM
Value type: inhibition at 10 µM (%)

Compound	Value type	Result number
O=C(NC1CCCCC1C(F)(F)F)c1ccc2[nH]c(Nc3c(Cl)cccc3Cl)nc2c1 (stereo not shown)	inhibition at 10 µM	86
COc1cc2[nH]c(Nc3c(Cl)cccc3Cl)nc2cc1C(=O)N[C@H]1CC[C@H](C(F)(F)F)CC1	inhibition at 10 µM	100
COc1cc2[nH]c(Nc3c(Cl)cccc3Cl)nc2cc1C(=O)NCc1ncccc1Cl	inhibition at 10 µM	100
Cc1cc(NC(=O)c2ccc3[nH]c(Nc4c(Cl)cccc4Cl)nc3c2)ncc1Cl	inhibition at 10 µM	97

* * *

- Measured target: recombinant human mPGES-1 (Homo sapiens, UniProt O14684)
- Construct: made in house; host or cells: Rosetta E. coli (microsomal/membrane fraction)
- Sequence (O14684 whole entry): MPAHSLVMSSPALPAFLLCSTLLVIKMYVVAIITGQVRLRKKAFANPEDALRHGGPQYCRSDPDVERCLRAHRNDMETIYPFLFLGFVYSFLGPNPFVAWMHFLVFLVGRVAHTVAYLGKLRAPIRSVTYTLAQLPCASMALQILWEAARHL
- Assay summary: mPGES-1 inhibition test (microsomes, PGH2 substrate, HTRF detection of PGE2)
- Format: biochemical
- Condition parameters: inhibition of mPGES-1 at 10 μM

Compound	Measured target	inhibition at 10 µM, %
Cn1c(Nc2c(Cl)cccc2Cl)nc2cc(C(=O)Nc3cc(C(C)(C)C)ccn3)ccc21	recombinant human mPGES-1 (Homo sapiens, UniProt O14684)	99
Cc1c[n+]([O-])c(NC(=O)c2ccc3nc(Nc4c(Cl)cccc4Cl)[nH]c3c2)cc1Cl	recombinant human mPGES-1 (Homo sapiens, UniProt O14684)	100
Cn1c(Nc2c(Cl)cccc2Cl)nc2cc(C(=O)Nc3cccc(S(C)(=O)=O)c3)ccc21	recombinant human mPGES-1 (Homo sapiens, UniProt O14684)	73
Cn1c(Nc2c(Cl)cccc2Cl)nc2cc(C(=O)N[C@H]3CC[C@H](C(F)(F)F)CC3)c(F)cc21	recombinant human mPGES-1 (Homo sapiens, UniProt O14684)	100
Cn1c(Nc2c(Cl)cccc2Cl)nc2cc(C(=O)NC3CCCC(C)(C)C3)c(F)cc21 (stereo not shown)	recombinant human mPGES-1 (Homo sapiens, UniProt O14684)	100
Cn1c(Nc2c(Cl)cccc2Cl)nc2cc(C(=O)NC3CCc4ccccc4C3)c(F)cc21 (stereo not shown)	recombinant human mPGES-1 (Homo sapiens, UniProt O14684)	100
COc1cccc(NC(=O)c2ccc3nc(Nc4c(Cl)cccc4Cl)[nH]c3c2)n1	recombinant human mPGES-1 (Homo sapiens, UniProt O14684)	98
COCCOc1cccc(NC(=O)c2ccc3[nH]c(Nc4c(Cl)cccc4Cl)nc3c2)n1	recombinant human mPGES-1 (Homo sapiens, UniProt O14684)	86
CS(=O)(=O)NCCCn1c(Nc2c(Cl)cccc2Cl)nc2cc(C(=O)Nc3cc(Cl)ccn3)ccc21	recombinant human mPGES-1 (Homo sapiens, UniProt O14684)	100
COc1cc2[nH]c(Nc3c(Cl)cccc3Cl)nc2cc1C(=O)NCc1ncccc1C(F)(F)F	recombinant human mPGES-1 (Homo sapiens, UniProt O14684)	100
Cn1c(Nc2c(Cl)cccc2Cl)nc2cc(C(=O)Nc3cccc(Cl)n3)ccc21	recombinant human mPGES-1 (Homo sapiens, UniProt O14684)	100
CS(=O)(=O)NCCn1c(Nc2c(Cl)cccc2Cl)nc2cc(C(=O)Nc3cc(Cl)ccn3)ccc21	recombinant human mPGES-1 (Homo sapiens, UniProt O14684)	97
O=C(Nc1ccc(Br)cn1)c1ccc2nc(Nc3c(F)cccc3Cl)[nH]c2c1	recombinant human mPGES-1 (Homo sapiens, UniProt O14684)	100
Cn1c(NC(=O)c2ccc3[nH]c(Nc4c(Cl)cccc4Cl)nc3c2)nc2ccccc21	recombinant human mPGES-1 (Homo sapiens, UniProt O14684)	84
CCc1cccc(CC)c1Nc1nc2cc(C(=O)Nc3ccc(Br)cc3)ccc2[nH]1	recombinant human mPGES-1 (Homo sapiens, UniProt O14684)	80
O=C(Nc1ccc(Br)cc1)c1cc2nc(Nc3c(Cl)ccc(Cl)c3F)[nH]c2cc1OCC(F)(F)F	recombinant human mPGES-1 (Homo sapiens, UniProt O14684)	97
COc1cc2c(cc1C(=O)NCc1ccccc1C(F)(F)F)nc(Nc1c(Cl)cccc1Cl)n2C	recombinant human mPGES-1 (Homo sapiens, UniProt O14684)	98
CC(C)Oc1cc2[nH]c(Nc3c(Cl)ccc(Cl)c3F)nc2cc1C(=O)Nc1ccc(Br)cc1	recombinant human mPGES-1 (Homo sapiens, UniProt O14684)	87
Cn1c(Nc2c(F)cccc2Cl)nc2cc(C(=O)NC3CCC4(CC3)CC4)c(F)cc21	recombinant human mPGES-1 (Homo sapiens, UniProt O14684)	100
CCc1ccc(C)nc1NC(=O)c1ccc2[nH]c(Nc3c(Cl)cccc3Cl)nc2c1	recombinant human mPGES-1 (Homo sapiens, UniProt O14684)	77
Cn1c(Nc2c(Cl)cccc2Cl)nc2cc(C(=O)NC3CC4CCCCC4C3)c(F)cc21 (stereo not shown)	recombinant human mPGES-1 (Homo sapiens, UniProt O14684)	100
COc1cc2[nH]c(Nc3c(Cl)ccc(Cl)c3F)nc2cc1C(=O)NC1CCC(C)(C)CC1	recombinant human mPGES-1 (Homo sapiens, UniProt O14684)	100
Cc1ccc(NC(=O)c2ccc3[nH]c(Nc4c(Cl)cccc4Cl)nc3c2)nc1	recombinant human mPGES-1 (Homo sapiens, UniProt O14684)	93
Cn1c(Nc2c(Cl)cccc2Cl)nc2cc(C(=O)NCc3cc(C(F)(F)F)ccn3)ccc21	recombinant human mPGES-1 (Homo sapiens, UniProt O14684)	97
O=C(NCCc1ccncc1)c1ccc2[nH]c(Nc3c(Cl)cccc3Cl)nc2c1	recombinant human mPGES-1 (Homo sapiens, UniProt O14684)	67
